Give measured melting temperature for each item. Keep answers brief.
Tested on: HeLa Kyoto;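 also: HeLa Kyoto cells synchronized by double thymidine or nocodazole block, proteins quantified by TMT10plex mass spectrometry, three independent biological replicates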
Assay: melting temperature (median over replicates), in situ; higher = more thermally stable
Settings: cell cycle stage: G1/S
Numeric only. Scale: °C

Incoming: What value of melting temperature has been reported for the following sequence? MAELDIGQHCQVEHCRQRDFLPFVCDDCSGIFCLEHRSRESHGCPEVTVINERLKTDQHTSYPCSFKDCAERELVAVICPYCEKNFCLRHRHQSDHECEKLEIPKPRMAATQKLVKDIIDSKTGETASKRWKGAKNSETAAKVALMKLKMHADGDKSLPQTERIYFQVFLPKGSKEKSKPMFFCHRWSIGKAIDFAASLARLKNDNNKFTAKKLRLCHITSGEALPLDHTLETWIAKEDCPLYNGGNIILEYLNDEEQFCKNVESYLE [ZFAND1]
Outgoing: 50.6

Incoming: What value of melting temperature has been reported for the following sequence? MVHCSCVLFRKYGNFIDKLRLFTRGGSGGMGYPRLGGEGGKGGDVWVVAQNRMTLKQLKDRYPRKRFVAGVGANSKISALKGSKGKDCEIPVPVGISVTDENGKIIGELNKENDRILVAQGGLGGKLLTNFLPLKGQKRIIHLDLKLIADVGLVGFPNAGKSSLLSCVSHAKPAIADYAFTTLKPELGKIMYSDFKQISVADLPGLIEGAHMNKGMGHKFLKHIERTRQLLFVVDISGFQLSSHTQYRTAFETIILLTKELELYKEELQTKPALLAVNKMDLPDAQDKFHELMSQLQNPKDFLHLFEKNMIPERTVEFQHIIPISAVTGEGIEELKNCIRKSLDEQANQENDALHKKQLLNLWISDTMSSTEPPSKHAVTTSKMDII [GTPBP10]
Outgoing: 49.4

Incoming: What value of melting temperature has been reported for the following sequence? MVKLAAKCILAGDPAVGKTALAQIFRSDGAHFQKSYTLTTGMDLVVKTVPVPDTGDSVELFIFDSAGKELFSEMLDKLWESPNVLCLVYDVTNEESFNNCSKWLEKARSQAPGISLPGVLVGNKTDLAGRRAVDSAEARAWALGQGLECFETSVKEMENFEAPFHCLAKQFHQLYREKVEVFRALA [IFT27]
Outgoing: 52.3

Incoming: What value of melting temperature has been reported for the following sequence? MRLLPRLLLLLLLVFPATVLFRGGPRGLLAVAQDLTEDEETVEDSIIEDEDDEAEVEEDEPTDLVEDKEEEDVSGEPEASPSADTTILFVKGEDFPANNIVKFLVGFTNKGTEDFIVESLDASFRYPQDYQFYIQNFTALPLNTVVPPQRQATFEYSFIPAEPMGGRPFGLVINLNYKDLNGNVFQDAVFNQTVTVIEREDGLDGETIFMYMFLAGLGLLVIVGLHQLLESRKRKRPIQKVEMGTSSQNDVDMSWIPQETLNQINKASPRRLPRKRAQKRSVGSDE [SSR1]
Outgoing: 57.4

Incoming: What value of melting temperature has been reported for the following sequence? MAANKPKGQNSLALHKVIMVGSGGVGKSALTLQFMYDEFVEDYEPTKADSYRKKVVLDGEEVQIDILDTAGQEDYAAIRDNYFRSGEGFLCVFSITEMESFAATADFREQILRVKEDENVPFLLVGNKSDLEDKRQVSVEEAKNRAEQWNVNYVETSAKTRANVDKVFFDLMREIRARKMEDSKEKNGKKKRKSLAKRIRERCCIL [RALA]
Outgoing: 58.9

Incoming: What value of melting temperature has been reported for the following sequence? MAAVVALSLRRRLPATTLGGACLQASRGAQTAAATAPRIKKFAIYRWDPDKAGDKPHMQTYEVDLNKCGPMVLDALIKIKNEVDSTLTFRRSCREGICGSCAMNINGGNTLACTRRIDTNLNKVSKIYPLPHMYVIKDLVPDLSNFYAQYKSIEPYLKKKDESQEGKQQYLQSIEEREKLDGLYECILCACCSTSCPSYWWNGDKYLGPAVLMQAYRWMIDSRDDFTEERLAKLQDPFSLYRCHTIMNCTRTCPKGLNPGKAIAEIKKMMATYKEKKASV [SDHB]
Outgoing: 54.7

The reported measurements were obtained from the supplement of paper PMC5998384.
